Kindly supply the reported IC50 values for the records listed here.
Target desc: UniProtKB P21836
Test summary: biochemical
Assay type: binding
Test parameters: IC50 values (Mean ± SEM), Reduction of TFT Fluorescence
Give bare numbers, in µM.

{"Compound": "CC[N+](C)(CC)CCC[n+]1c(-c2ccccc2)c2cc(N)ccc2c2ccc(N)cc21 [Propidium Iodide, propidium iodide]", "Unit descriptor": "µM", "IC50": 0.67}

List reported IC50 for each of these compounds:
1. CNC(=O)Oc1cccc(C(C)(C)C)c1 [Compound 1, 3-tert-butylphenyl methylcarbamate]
2. COc1cc2c3cc1Oc1cc(ccc1O)C[C@@H]1c4c(cc(OC)c(O)c4Oc4ccc(cc4)C[C@@H]3N(C)CC2)CC[N+]1(C)C
3. CCC(C)CSc1ccccc1OC(=O)NC (stereo not shown)

Found:
1. 0.025
2. 50
3. 8.9

---

Target desc: murine AChE (mAChE) (Mus musculus, UniProt P21836)
Sequence (P21836 32-614): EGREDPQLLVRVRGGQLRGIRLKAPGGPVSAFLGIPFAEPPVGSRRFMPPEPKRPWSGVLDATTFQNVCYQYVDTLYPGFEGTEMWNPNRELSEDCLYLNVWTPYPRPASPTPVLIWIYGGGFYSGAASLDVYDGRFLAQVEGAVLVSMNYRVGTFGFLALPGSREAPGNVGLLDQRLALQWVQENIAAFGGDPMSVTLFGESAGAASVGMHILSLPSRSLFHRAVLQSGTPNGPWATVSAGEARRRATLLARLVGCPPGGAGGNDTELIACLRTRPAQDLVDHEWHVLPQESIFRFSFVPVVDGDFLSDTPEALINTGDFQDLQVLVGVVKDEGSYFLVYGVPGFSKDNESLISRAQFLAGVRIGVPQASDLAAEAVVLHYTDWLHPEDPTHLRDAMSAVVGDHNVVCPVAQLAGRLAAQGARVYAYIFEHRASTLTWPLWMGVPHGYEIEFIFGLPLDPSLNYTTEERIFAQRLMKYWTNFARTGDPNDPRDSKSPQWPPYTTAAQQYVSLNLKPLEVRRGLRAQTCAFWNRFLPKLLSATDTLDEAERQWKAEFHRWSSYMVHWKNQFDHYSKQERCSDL
Test summary: biochemical
Format: binding
Observation type: Ratio = IC50 TFT assay/IC50 Ellman assay
Answers are plain numbers.

{"Compound": "CNC(=O)O/N=C/C(C)(C)SC", "Ratio = IC50 TFT assay/IC50 Ellman assay": 0.9}

List reported Ratio = IC50 TFT assay/IC50 Ellman assay for each of these compounds:
1. CNC(=O)Oc1cccc(C(C)(C)C)c1 [Compound 1, 3-tert-butylphenyl methylcarbamate]
2. CCC(C)CSc1ccccc1OC(=O)NC (centres unmarked)
3. CNC(=O)Oc1cccc2c1OC(C)(C)O2
4. CC[N+](C)(C)c1cccc(O)c1
5. COc1cc2c3cc1Oc1cc(ccc1O)C[C@@H]1c4c(cc(OC)c(O)c4Oc4ccc(cc4)C[C@@H]3N(C)CC2)CC[N+]1(C)C

Found:
[0.4, 0.9, 0.4, 0.33, 0.7]

List reported Ratio = IC50 TFT assay/IC50 Ellman assay for each of these compounds:
1. Cc1nc(N(C)C)nc(OC(=O)N(C)C)c1C
2. CC[n+]1c(-c2ccccc2)c2cc(N)ccc2c2ccc(N)cc21 [Ethidium Bromide, ethidium bromide]

Found:
[0.6, 4.1]

---

Target desc: murine AChE (mAChE) (Mus musculus, UniProt P21836)
Test summary: biochemical
Type: binding
Observation type: Ratio = IC50 TFT assay/IC50 Ellman assay
Numbers only.

Examples with answers:
{"Compound": "CNC(=O)Oc1ccccc1OC(C)C", "Target desc": "murine AChE (mAChE) (Mus musculus, UniProt P21836)", "Observed result": 0.13}
{"Compound": "CC[N+](C)(CC)CCC[n+]1c(-c2ccccc2)c2cc(N)ccc2c2ccc(N)cc21 [Propidium Iodide, propidium iodide]", "Target desc": "murine AChE (mAChE) (Mus musculus, UniProt P21836)", "Observed result": 1.0}

API: the following record is the query input.
Lookup: Which measured Ratio = IC50 TFT assay/IC50 Ellman assay value corresponds to `C=CC[N+](C)(C)c1ccc(CCC(=O)CCc2ccc([N+](C)(C)CC=C)cc2)cc1.[Br-].[Br-]` ?
Found: 1.9
